Molecular target: human 5-HT2B receptor (Homo sapiens)
Sequence (P41595 whole entry): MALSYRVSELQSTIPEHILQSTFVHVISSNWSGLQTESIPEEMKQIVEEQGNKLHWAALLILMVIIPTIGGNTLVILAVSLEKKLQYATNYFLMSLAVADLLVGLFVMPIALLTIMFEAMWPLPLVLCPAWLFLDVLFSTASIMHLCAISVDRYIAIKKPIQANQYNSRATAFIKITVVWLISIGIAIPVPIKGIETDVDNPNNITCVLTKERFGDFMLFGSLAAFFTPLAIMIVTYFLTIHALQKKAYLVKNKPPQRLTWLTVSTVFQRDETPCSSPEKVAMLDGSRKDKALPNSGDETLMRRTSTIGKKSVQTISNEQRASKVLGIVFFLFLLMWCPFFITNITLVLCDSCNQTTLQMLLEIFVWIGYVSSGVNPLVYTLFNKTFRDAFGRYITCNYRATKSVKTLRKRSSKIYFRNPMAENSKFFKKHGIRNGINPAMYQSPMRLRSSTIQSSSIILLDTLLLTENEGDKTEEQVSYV
Conditions: HEK293, read-out: h5-HT2B Activation efficacy max ± SD, relative to 5-HT = 100%
property: Emax (%)
Numbers only, in %.

Worked cases, Emax given:
COc1cc(CCN)cc(OC)c1OC(F)(F)F [compound 13] = 45
COc1cc(CCN)cc(OC)c1OCCF [compound 16] = 29
COc1cc(CCN)cc(OC)c1OCC(F)(F)F [compound 18] = 29

Next, consider the following compound.
The measured Emax associated with COc1cc(CCN)cc(OC)c1OCC(F)F [compound 17] reads 25

---

Target: hα2A adrenergic receptor (Homo sapiens, UniProt P08913)
Construct: expressed in transfected cells; host or cells: Chinese hamster lung cells (membrane preparations)
Sequence (P08913 1-465): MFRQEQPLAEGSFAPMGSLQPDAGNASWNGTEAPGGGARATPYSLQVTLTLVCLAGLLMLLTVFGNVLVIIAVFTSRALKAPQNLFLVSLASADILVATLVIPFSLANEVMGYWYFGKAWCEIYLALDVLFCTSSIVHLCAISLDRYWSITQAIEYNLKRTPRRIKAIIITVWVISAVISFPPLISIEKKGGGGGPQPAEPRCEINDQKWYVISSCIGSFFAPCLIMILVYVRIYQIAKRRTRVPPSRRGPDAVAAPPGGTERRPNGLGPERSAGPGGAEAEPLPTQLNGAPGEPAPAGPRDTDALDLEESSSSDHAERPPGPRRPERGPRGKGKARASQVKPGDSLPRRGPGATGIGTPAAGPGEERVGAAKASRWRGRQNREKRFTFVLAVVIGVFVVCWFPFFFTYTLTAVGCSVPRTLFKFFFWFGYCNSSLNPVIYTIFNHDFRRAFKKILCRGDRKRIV
Experiment: Radioligand binding at hα2A adrenergic receptor ([3H]rauwolscine)
property: pKi
Numbers only, as −log10 of the molar value.

COc1cc(CCN)cc(OC)c1OC(F)F [compound 12] = 5.77
C=C(C)COc1c(OC)cc(CCN)cc1OC [compound 32] = 5.82

Please give pKi for each item listed below.
1. COc1cc(CCN)cc(OC)c1OCCCF [compound 25]
2. COc1cc(CCN)cc(OC)c1OCCC(F)(F)F [compound 26]

1. 5.54
2. 5.64

---

Biological target: h5-HT2C receptor (Homo sapiens, UniProt P28335)
Sequence (P28335 33-458): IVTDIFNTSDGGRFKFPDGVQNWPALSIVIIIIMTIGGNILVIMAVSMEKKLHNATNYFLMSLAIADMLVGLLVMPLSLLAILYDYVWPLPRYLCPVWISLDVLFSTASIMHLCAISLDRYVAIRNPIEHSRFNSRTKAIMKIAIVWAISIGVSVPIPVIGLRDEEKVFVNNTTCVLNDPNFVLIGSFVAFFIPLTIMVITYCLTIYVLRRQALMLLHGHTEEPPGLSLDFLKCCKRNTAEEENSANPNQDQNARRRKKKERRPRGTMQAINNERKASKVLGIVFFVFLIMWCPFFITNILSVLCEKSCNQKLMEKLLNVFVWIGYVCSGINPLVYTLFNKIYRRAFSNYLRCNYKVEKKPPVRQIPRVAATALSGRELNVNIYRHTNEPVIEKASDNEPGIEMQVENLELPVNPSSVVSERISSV
Field: pKi. Provide a value for each of the compounds that follow.
One number for each entry, as −log10 of the molar value.

COc1cc(CCN)cc(OC)c1OC1CC1 [compound 29] = 5.25
COc1cc(CCN)cc(OC)c1OCC(F)F [compound 17] = 5.57
COc1cc(CCN)cc(OC)c1OC(C)C [compound 22, 3,5-dimethoxy-4-isopropoxyphenethylamine] = 5.27
COc1cc(CCN)cc(OC)c1OCc1ccccc1 [compound 33, 4-benzyloxy-3,5-dimethoxyphenethylamine] = 6.36
COc1cc(CC(C)N)cc(OC)c1OCCF (stereo not shown) [compound 20] = 5.08
COc1cc(CCN)cc(OC)c1OCC(F)(F)F [compound 18] = 5.92

Each compound below has a reported value. Please supply its pKi.
1. COc1cc(CCN)cc(OC)c1OCCF [compound 16]
2. COc1cc(CCN)cc(OC)c1OCCC(F)(F)F [compound 26]
3. COc1cc(CC(C)N)cc(OC)c1OCCCF (stereo not shown) [compound 27]
4. COc1cc(CCN)cc(OC)c1OC(F)F [compound 12]

1. 5.24
2. 5.28
3. 5.36
4. 5.55
